# assayDetails: solvent given as SMILES
# assaySetup: in CS(C)=O
measuredProperty: absorption maximum (nm)
Please respond with the number in nm and leave the unit unwritten.

# example entries with known answers
sampleSmiles	recordedResult
C(=C\c1cnccn1)/c1ccc(N(c2ccccc2)c2ccccc2)cc1	400
O=c1oc2ccccc2c2c1c(=O)oc1cc(O)cc(O)c12	388
CC(C)(C)c1ccc2c(c1)c1cc(C(C)(C)C)ccc1n2-c1ccc2oc3nc4oc5ccc(C(F)(F)F)cc5c4cc3c2c1	337
CCN(CC)c1ccc(-c2nc3c(c4c2-c2ccc(C#N)cc2CC4)-c2ccc(C#N)cc2CC3)cc1	375
Cc1cc(O)c(C(C)C)cc1/N=C/c1ccc(C(F)(F)F)cc1	366
CC(=O)O[B-]1(OC(C)=O)OC(/C=C/c2ccccc2)=CC(/C=C/c2ccccc2)=[O+]1	428

--- query ---
INPUT: Consider the compound "Cn1c(=O)c(/N=N/c2cc(S(=O)(=O)O)ccc2S(=O)(=O)O)c(O)c2ccccc21" and give its recorded absorption maximum.
OUTPUT: 419

---

# assayDetails: solvent given as SMILES
# assaySetup: in ClCCl
Let's look at some compounds and their measured absorption maximum.
Your answer is read as nm, so omit the unit and give the number.

compound	recordedResult
COc1ccc(-c2cc(-c3ccccc3)c3n2[B-](F)(F)[N+]2=C4C=NC=CN4[B-](F)(F)[N+]2=C3)cc1	534
COc1cc2cc(OC)c(C#Cc3ccc([N+](=O)[O-])cc3)cc2cc1C#Cc1ccc([N+](=O)[O-])cc1	360

API: the following record is the query input.
INPUT: Identify measured absorption maximum associated with CC1=[N+]2C(=Cc3c4c(cn3[B-]2(F)F)-c2nc-4c(-c3ccccc3)c3ccc([nH]3)c(-c3ccccc3)c3nc(c(-c4ccccc4)c4ccc([nH]4)c2-c2ccccc2)C=C3)C(C)C1 (stereo not drawn)
OUTPUT: 640

---

As shown below, each of these compounds has a reported absorption maximum value.
# assayDetails: solvent given as SMILES
# assaySetup: in C1COCCO1
Give just the number in nm; leave the unit off.

sampleSmiles	absorption maximum, nm
C(=C\c1ccnc2ccccc12)/c1ccc(/C=C/c2ccnc3ccccc23)cc1	370
N#Cc1ccc(/C=C2\N=C(c3ccccc3)OC2=O)cc1	369
C(/C=C/c1cc2c3c(c1)CCCN3CCC2)=C\c1ccncc1	413

Now for another entry.
INPUT: For the compound "O=C(O)c1ccccc1Nc1ccccc1" , give its measured absorption maximum value.
OUTPUT: 353

---

Entries annotated with measured absorption maximum
# assayDetails: solvent given as SMILES
# assaySetup: in C1COCCO1
Only the number, expressed in nm, is required.

Answered examples (3):
molecule	measuredProperty	recordedResult
COc1ccc(C2CC(c3ccc(O)cc3)=NN2c2ccc(S(N)(=O)=O)cc2)cc1 (stereo not given)	absorption maximum	360
CC(=O)Nc1ccc2c3cccc4cccc(c5cccc1c52)c43	absorption maximum	447
Cc1ccc(C2=C3C=CC(C#Cc4ccccc4)=[N+]3[B-](F)(F)n3c(C#Cc4ccccc4)ccc32)cc1	absorption maximum	612

INPUT: Identify measured absorption maximum associated with "N#Cc1ccc(/C=C2\C=C(c3ccccc3)OC2=O)cc1"
OUTPUT: 400

INPUT: Specify absorption maximum for "COc1nc(Nc2ccc3cc4ccccc4cc3c2)nc(OC)n1" and stop.
OUTPUT: 394

INPUT: Please supply the value of reported absorption maximum for the item "CCCCCCCCC1(CCCCCCCC)c2cc(C#Cc3ccc(N(c4ccccc4)c4ccccc4)cc3)ccc2-c2ccc(C=O)cc21"
OUTPUT: 381

INPUT: Indicate its recorded absorption maximum; the molecule in question is "CC(=O)Nc1ccc(C2=C/C(=C\c3ccc([N+](=O)[O-])cc3)C(=O)O2)cc1"
OUTPUT: 438

INPUT: State its absorption maximum for this molecule: "COC(=O)c1nc2c(N(C)C)nc(N(C)C)nc2n1Cc1ccccc1"
OUTPUT: 344

INPUT: Give recorded absorption maximum. "COc1cc(/C=C2/SC(=O)NC2=O)cc(OC)c1O"
OUTPUT: 367

INPUT: Item "Cc1ccccc1/C(C#N)=C/c1ccc(N(C)C)cc1" : provide absorption maximum
OUTPUT: 376

---

Listed here are compounds together with their documented absorption maximum.
# assayDetails: solvent given as SMILES
# assaySetup: in C1CCCCC1
Use nm as the unit, but write only the number.

compound	absorption maximum / nm
Cc1ccc(/C=C/c2ccccc2-[n+]2noc([O-])c2-c2ccccc2)cc1	316
c1ccc(N(c2ccccc2)c2ccc3c4cccc5c(N(c6ccccc6)c6ccccc6)ccc(c6cccc2c63)c54)cc1	493
COC(=O)c1nc(Br)c(-c2ccccc2)o1	307
Cc1ccc(C2=C3C=CC(C#Cc4ccccc4)=[N+]3[B-](F)(F)n3c(Cl)ccc32)cc1	564

INPUT: Provide measured absorption maximum value, entry: "Cc1ccc2ccccc2c1"
OUTPUT: 303.77

---

# assayDetails: solvent given as SMILES
# assaySetup: in Cc1ccccc1
measuredProperty: absorption maximum (nm)
Quick note: give the figure in nm, leave out the unit.

// solved cases for absorption maximum follow
sampleSmiles	unitsLabel	absorption maximum
CCn1c2ccccc2c2cc(/C=C/c3cc(/C=C/c4ccc5c(c4)c4ccccc4n5CC)ncn3)ccc21	nm	397
CC(C)(C)c1ccc(C(C)(C)C)c(N2C(=O)c3cccc4c(-c5ccc(-c6ccccc6)s5)ccc(c34)C2=O)c1	nm	398

Now for the compound whose absorption maximum we want.
INPUT: Tell us which absorption maximum value is on record for "COc1ccc(-c2ccc3c(c2)c2cc(-c4ccc(OC)cc4)ccc2n3-c2ccc(C(=O)c3ccc4sc5ccccc5c4c3)nc2)cc1"
OUTPUT: 390

---

# assayDetails: solvent given as SMILES
# assaySetup: in ClCCl
Mark Met for absorption maximum under 400 nm, Not met if at or over.

compound	labelClass
O=P1(c2ccccc2)C(c2cc(C(F)(F)F)cc(C(F)(F)F)c2)=Cc2c3ccc4cccc5ccc(c6cc(-c7ccc(N(c8ccccc8)c8ccccc8)cc7)n1c26)c3c45 (stereo not drawn)	Not met

INPUT: Is absorption maximum strictly under 400 nm for the entry COC1(OC)C2(Cl)c3nc4cc(-c5cccs5)ccc4nc3C1(Cl)C1C[C@H]3[C@@H](CC12)C1(Cl)c2nc4ccc(-c5cccs5)cc4nc2C3(Cl)C1(OC)OC (stereo partly drawn) ?
OUTPUT: Met

INPUT: Just wondering, is absorption maximum of "CC(C)[Si](C#Cc1ccc(C#Cc2c3cc4ccccc4cc3c(C#C[Si](C(C)C)(C(C)C)C(C)C)c3cc4ccccc4cc23)cc1)(C(C)C)C(C)C" below 400 nm?
OUTPUT: Not met

INPUT: Hello, is absorption maximum of the following compound strictly smaller than 400 nm? "C#Cc1ccc(-c2nc(-c3ccc(C#C)s3)nc(-c3ccc(C#C)s3)n2)s1"
OUTPUT: Met

INPUT: absorption maximum under 400 nm? Item: CCCCC(CC)Cn1c2cc(C#N)ccc2c2ccc(C#Cc3ccc4ccc5c(C#Cc6ccc7c8ccc(C#N)cc8n(CC(CC)CCCC)c7c6)ccc6ccc3c4c65)cc21 (stereo not drawn)
OUTPUT: Met

INPUT: Lab note: confirm whether the reported absorption maximum for this compound is below 400 nm, equality not counting. compound: "O=c1c2ccccc2nc2ccc(-c3ccc(-c4ccc(N(c5ccccc5)c5ccccc5)cc4)cc3)cn12"
OUTPUT: Met

INPUT: Confirm or reject: absorption maximum of "Cc1ccc(-c2cnc3ccc4ccccc4n23)cc1" lies strictly below 400 nm
OUTPUT: Met

---

# assayDetails: solvent given as SMILES
# assaySetup: in ClCCl
Classes by absorption maximum: lower (below 400 nm), middle (400 nm to below 500 nm), upper (500 nm or more)

compound	labelClass
F[B-]1(F)n2c(Oc3ccccc3)c(Cl)c3c2C(=C2C(Br)=C(Cl)C(Oc4ccccc4)=[N+]21)Oc1ccccc1-3	middle
CCOC(=O)c1ccc(C2CC(c3cccc4ccccc34)=NN2c2ccc(F)cc2)cc1 (stereo not drawn)	lower
Cc1ccc(N(c2ccc(C)cc2)c2ccc(Oc3nnc(Cl)nn3)cc2)cc1	upper
CCCCN1C(=O)c2cccc3cc(C#CC#Cc4cc5c6c(cccc6c4)C(=O)N(CCCC)C5=O)cc(c23)C1=O	lower
c1ccc(-c2nc3c(c4c2-c2ccccc2CC4)-c2ccccc2CC3)cc1	lower

INPUT: Tag the class for "CCCCCCCCCCCCCCCCCCOC(=O)/C=C/C1=CC2=C(c3c(C)cc(C)cc3C)c3cccn3[B-](F)(F)[N+]2=C1"
OUTPUT: upper

INPUT: Which absorption maximum band matches "O=S1(=O)C2=C(c3ccc(-c4ccc(N(c5ccccc5)c5ccccc5)cc4)cc31)C1(C3=C(c4ccccc41)S(=O)(=O)c1cc(-c4ccc(N(c5ccccc5)c5ccccc5)cc4)ccc13)c1ccccc12" ?
OUTPUT: middle

INPUT: Using the reported absorption maximum, which band applies to "CCCCCc1ccc(-c2ccc(C#Cc3cc(C#Cc4ccc(-c5ccc(CCCCC)cc5)cc4)c4ccc5c(C(=O)c6ccccc6)cc(C#Cc6ccc(-c7ccc(CCCCC)cc7)cc6)c6ccc3c4c65)cc2)cc1" ?
OUTPUT: middle

INPUT: Lab note: which band did "O=c1c2ccccc2nc2n1[B-](F)(F)[n+]1ccccc1-2" land in?
OUTPUT: lower

INPUT: Band for the recorded absorption maximum of "FC(F)(F)c1ccc(-n2c(-c3ccc(N(c4ccc(-c5ccc(N(c6ccc(-c7nc8c9ccccc9c9ccccc9c8n7-c7ccc(C(F)(F)F)cc7)cc6)c6ccc(-c7nc8c9ccccc9c9ccccc9c8n7-c7ccc(C(F)(F)F)cc7)cc6)cc5)cc4)c4ccc(-c5nc6c7ccccc7c7ccccc7c6n5-c5ccc(C(F)(F)F)cc5)cc4)cc3)nc3c4ccccc4c4ccccc4c32)cc1" ?
OUTPUT: lower
